Experiment: OV-SAHO Cancer Cell Toxicity qHTS against the NCATS CANVASS Library (AID 1347348); further: nearly all actives have a fitted effect of over 55% in size
Conditions: OV-SAHO viability, CellTiter-Glo luminescence, 72 h; series mostly up to 38.3 µM
Results filed as inconclusive are left out. Calls of active or inactive are those of the source. The call rests on the fitted dose curve; in most records, active means well fitted cell-killing curve with a large enough effect; inconclusive means small, poorly fitted or top-dose-only effect; inactive means flat fitted curve, though single readings scatter.
Answer with one of the outcomes given here: active, inactive

(Q) Name the outcome recorded for CCN1C[C@]2(C)CC[C@H](O)[C@]34C1C(C[C@H]23)[C@@]12CC[C@H](CC14)[C@](O)(COC(=O)c1ccc(OC)c(OC)c1)[C@H]2O (stereo partly drawn) in the assay.
(A) inactive

(Q) Name the outcome recorded for C[C@]12CC(O)C3[C@@H](CCC4C[C@@H](O)CC[C@@]43CO)[C@@]1(O)CCC2C1=CC(=O)OC1 (stereo partly drawn) in the assay.
(A) inactive

(Q) Name the outcome recorded for COC(=O)C1=C2Nc3ccccc3[C@@]23CCN2CC(C(C)=O)C1C[C@H]23 (stereo partly drawn) in the assay.
(A) inactive

(Q) Name the outcome recorded for CCC(=O)CCCCC[C@@H]1NC(=O)[C@H]2CCCCN2C(=O)[C@H]([C@@H](C)CC)NC(=O)[C@H](Cc2cn(OC)c3ccccc23)NC1=O in the assay.
(A) active

(Q) Name the outcome recorded for CN1C(=O)[C@]23CC4C(C)(C)[C@@]5(C[C@@]41CN2CC[C@@]3(C)O)C(=O)Nc1c5ccc2c1OC=CC(C)(C)O2 (stereo partly drawn) in the assay.
(A) inactive

(Q) Name the outcome recorded for NCCc1ccccc1 in the assay.
(A) inactive

(Q) Name the outcome recorded for C=C1[C@@H](C)[C@H]2[C@H](Cc3ccccc3)NC(=O)[C@]23OC(=O)/C=C/[C@H](O)CCC[C@@H](C)C/C=C/[C@H]3[C@@H]1O in the assay.
(A) inactive

(Q) Name the outcome recorded for CC[N@@+]1([O-])C[C@]2(C)CC[C@@H](O)[C@@]34C5C[C@H]6CC[C@@]5(C(C[C@H]23)C41)[C@H](O)[C@@]6(O)CO (stereo partly drawn) in the assay.
(A) inactive
